Hello, the source for this data is patent US20250027068A1, in case you need it.

# system-under-test: pooled human IgG (human); further: test concentration or dose not given here
# assay-notes: cell-based or functional assay
quantity-name: Enzyme Activity Endpoint Assay (purified): scIgG (ng/µL)
Your answer is read as ng/µL, so omit the unit and give the number.

query: For PRT-217 (enzyme) MEVVEVWPYGQNPNGKTEILSQTEDSESLQRLRDIEDFQAEKKKQNVVYTKWLDGVTVDDSDFRKIKDGNTEYYATPLLNGRGFYDINKDFNRDSDKCAAAVAANMFHYWLDRNRDNVDRFLKQNPEKHGIIELPDGQLKLSDFLNTYESDNNYRDKSKLFDFISKNFNGPVWTNKLLDNYINGYGYNYKYGRTIEDPTKNTSKINFFKKVFNEKILTNVHQIFNYNEFSTLLSEALYTGKAIGLSYGPGGLRHSLGHIISVWGADLDADGNVVAIYVTDSDDKKLTIGDERVGLKRYKISTDDEGRARLTAYTETDNTGGQVRGIYTLDTGKQAWADYFDKTEQTGTDQAEQLEHHHHHH , what is its reported Enzyme Activity Endpoint Assay (purified): scIgG?
result: 41
